Value source: ChEMBL document CHEMBL1131521

Listed here are compounds together with their documented pIC50.
measured on: Platelet-derived growth factor receptor beta (Mus musculus, UniProt P05622)
Sequence (P05622 whole entry): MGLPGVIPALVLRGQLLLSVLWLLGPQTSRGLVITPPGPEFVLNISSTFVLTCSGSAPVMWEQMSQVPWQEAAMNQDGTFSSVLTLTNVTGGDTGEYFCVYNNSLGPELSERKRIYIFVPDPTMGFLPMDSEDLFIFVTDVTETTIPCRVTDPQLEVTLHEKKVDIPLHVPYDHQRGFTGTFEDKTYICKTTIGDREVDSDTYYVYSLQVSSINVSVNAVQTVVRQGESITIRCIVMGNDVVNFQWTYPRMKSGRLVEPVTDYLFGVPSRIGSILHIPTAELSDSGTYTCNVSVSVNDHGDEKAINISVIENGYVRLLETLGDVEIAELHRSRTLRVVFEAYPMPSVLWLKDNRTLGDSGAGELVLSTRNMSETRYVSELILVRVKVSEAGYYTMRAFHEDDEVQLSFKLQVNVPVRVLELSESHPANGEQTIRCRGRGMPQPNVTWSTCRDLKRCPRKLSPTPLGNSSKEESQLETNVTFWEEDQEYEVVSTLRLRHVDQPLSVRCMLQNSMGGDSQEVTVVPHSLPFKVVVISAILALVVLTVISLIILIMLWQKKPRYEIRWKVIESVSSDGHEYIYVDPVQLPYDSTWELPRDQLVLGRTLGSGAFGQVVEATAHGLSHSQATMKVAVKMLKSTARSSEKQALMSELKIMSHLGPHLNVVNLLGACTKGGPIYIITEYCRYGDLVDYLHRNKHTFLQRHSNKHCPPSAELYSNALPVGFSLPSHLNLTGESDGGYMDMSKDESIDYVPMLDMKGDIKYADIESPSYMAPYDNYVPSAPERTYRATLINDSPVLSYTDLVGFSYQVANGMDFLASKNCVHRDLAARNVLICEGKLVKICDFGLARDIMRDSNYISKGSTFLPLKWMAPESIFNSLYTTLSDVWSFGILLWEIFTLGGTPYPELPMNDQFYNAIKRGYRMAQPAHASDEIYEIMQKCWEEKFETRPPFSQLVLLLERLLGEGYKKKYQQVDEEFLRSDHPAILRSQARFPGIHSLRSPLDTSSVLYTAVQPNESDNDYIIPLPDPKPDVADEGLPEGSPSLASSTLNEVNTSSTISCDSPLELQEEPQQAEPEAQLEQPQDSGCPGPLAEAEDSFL
run description: Inhibition of phosphorylation of a random glutamate/tyrosine copolymer in lysates of transfected Sf9 insect cells overexpressing mouse platelet-derived growth factor receptor beta
pIC50: −log10 of the molar value.

Use these answered entries as a reference point.
smiles repr | measured on | pIC50
c1ccc(-n2ncc3ccccc32)cc1 | Platelet-derived growth factor receptor beta (Mus musculus, UniProt P05622) | < 4.30
Oc1cccc2c1ncn2-c1ccccc1 | Platelet-derived growth factor receptor beta (Mus musculus, UniProt P05622) | 4.96
O=Cc1ccc(-n2cnc3ccccc32)cc1 | Platelet-derived growth factor receptor beta (Mus musculus, UniProt P05622) | 4.89
O=[N+]([O-])c1ccc2ncn(-c3ccccc3)c2c1 | Platelet-derived growth factor receptor beta (Mus musculus, UniProt P05622) | 4.30
Cc1cccc2ncn(-c3ccccc3)c12 | Platelet-derived growth factor receptor beta (Mus musculus, UniProt P05622) | < 4.30
NC(=O)c1ccc2ncn(-c3ccccc3)c2c1 | Platelet-derived growth factor receptor beta (Mus musculus, UniProt P05622) | 4.60
c1ccc(-n2nnc3ccccc32)cc1 | Platelet-derived growth factor receptor beta (Mus musculus, UniProt P05622) | < 4.30
Oc1ccc2c(c1)ncn2-c1ccccc1 | Platelet-derived growth factor receptor beta (Mus musculus, UniProt P05622) | 6.36

For record `O=C(O)c1cccc(-n2cnc3ccccc32)c1` the listed pIC50 is < 4.30

For record `Oc1cccc2ncn(-c3ccccc3)c12` the listed pIC50 is < 4.30
